Target: p52p52 homodimer (Homo sapiens, UniProt Q00653 4-332)
Sequence: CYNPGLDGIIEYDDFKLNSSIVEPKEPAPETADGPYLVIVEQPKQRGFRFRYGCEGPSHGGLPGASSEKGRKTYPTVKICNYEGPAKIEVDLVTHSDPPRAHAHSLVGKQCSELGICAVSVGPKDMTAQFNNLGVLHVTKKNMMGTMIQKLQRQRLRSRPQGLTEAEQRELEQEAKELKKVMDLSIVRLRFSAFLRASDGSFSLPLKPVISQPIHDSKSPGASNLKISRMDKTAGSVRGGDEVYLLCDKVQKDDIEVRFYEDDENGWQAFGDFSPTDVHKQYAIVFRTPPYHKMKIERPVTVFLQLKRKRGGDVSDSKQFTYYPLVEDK
Assay: protein binding microarray; high values mean tight binding
Conditions: dsDNA, one strand shown
Examples of sequences with documented binding signal follow.
I only need the number, in z-score, no unit after it.

Study these solved cases before continuing.
macromolecule_sequence=GGAGTCTCCCC reported=0.409
macromolecule_sequence=GAGAAGATCCC reported=-0.271
macromolecule_sequence=CAGGTGTTCCC reported=0.0698
macromolecule_sequence=AAAGGCACCCT reported=-0.454

Ask: Sample GGAATCGTCCC — what was its binding signal?
Reply: 0.582

Ask: Same again, this time with CAATGGGCCCC
Reply: -0.242

Ask: Same again, this time with AGAAGATTCCT
Reply: -0.567

Ask: Same again, this time with GAAATTGCCCT
Reply: -0.333

Ask: Same again, this time with GAGGAAATCCT
Reply: -0.463
